We begin with a simple list: items and their reported MFI at 6 nM mAb.
# tested.on: T1, Human CD33 full length, expressed on HEK293F cells (human, UniProt P20138 18-364)
# T1 construct: HEK293F cells transduced with lentivirus containing full length human CD33; also called huCD33
# assay.info: flow cytometry, HEK293F cells expressing human CD33
# output: bare number, implied unit MFI

The following binders have reported results that may help.
binder	MFI at 6 nM mAb / MFI
C33B101 (antibody, V domains shown, huIgG1 F405L; 260 is used; also called C33F106; C33H69/C4LL152) VH: QLQLQESGPGLVKPSETLSLTCTVSGGSISSSSYYWGWIRQPPGKGLDWIGSINYSGSTYYNPSLKSRVTISVDTSKIQFSLKLRSVTAADTAVYYCARLDGYESPFDYWGQGTLVTVSS VL: DIQMTQSPSSVSASVGDRVTITCRASQGISSWLAWYQQKPGKAPKLLIYAASSLQSGVPSRFSGSGSGTDFTLTISSLQPEDFATYYCQQANSFPFTFGPGTKVDIK	205000
C33B73 (antibody, IgG1, V domains shown, huIgG1 F405L; also called C33F78; C33H66/C33L60) VH: QVQLVESGGGVVQPGRSLRLSCVASGFTFSSYGMHWVRQAPGKGLEWVAVISYDGSNKYYADSVKGRFTISRDNSKNTLYLQMNSLRAEGTAVYYCAKDFRSFDWLPPDSASYHGMDVWGQGTTVTVSS VL: SYELTQPPSVSVSPGQTASITCSGDKLGDKYACWYQQKPGQSPVLVIYQDGKRPSGIPERFSGSNFGNKATLTISGTQAMDEADYYCQAWDRNTVVFGGGTKLTVL	33400
C33B66 (antibody, IgG1, V domains shown, huIgG1 F405L; also called C33F71; C33H55/C33L42) VH: QVQLQESGPGLVKPSGTLSLTCAVSGGSISSSNWWSWVRQPPGRGLEWIGEIYHSGNTNNSPSLKSRVTISADKSKNQFSLKLSSVTAADTAVYFCARIIAVARYFDSWGQGTLVTVSS VL: SYVLTQPPSVSVAPGQTARITCGGNNIGIKSVHWYQQKPGQAPVLVVYDDSDRPPGIPERFSGSNSGNTATLTITRVEAGDEADYYCQVWDSSSDHVVFGGGTKLTVL	313000

Sure, the documented MFI at 6 nM mAb for C33B82 (antibody, IgG1, V domains shown, huIgG1 F405L; also called C33F87; C33H78/C33L57) VH: QVQLVESGGGVVQPGRSLRLSCAASGFTFSSYGMHWVRQAPGKGLEWVAVISYDGSNKYYADSVKGRFTISRDNSKNTLFLQMNSLRAEDTAVYYCAKDFRYFDWLPPDSSSYYGMDVWGQGTTVTVSS VL: SYELTQPPSVSVSPGQTASITCSGDELGNKYACWYQQKPGQSPVVVVYQDRKRPSGIPERFSGSNFGNTATLTISGTQAMDEADYYCQAWDSSTVVFGGGTKLTVL is 41300

Sure, the documented MFI at 6 nM mAb for C33B48 (antibody, IgG1, V domains shown, huIgG1 F405L; also called C33F53; C33H80/C33L73) VH: QVQLVQSGSELRKPGASVKVSCKASGYTFTNYAMNWVRQAPGQGLEWMGWINTNTGNPTYAQGFTGRFVFSLDTSVSSAYLQISSLKAEDTAMYYCATDRDRGTDYWGQGTLVTVSS VL: QSALTQPASVSGSPGQSITISCTGTSSDVGDYNYVSWYQQHPGKVPKLMIYDVSNRPSGVSNRFSGSMSGNTASLTISGLQAEDEADYYCSSYSSSSALEVFGGGTKLTVL is 429000

Measured values drawn from patent US20230322924A1 for this set.
